Target: T1, Human CD98 ECD with C-terminal His-tag (human, UniProt P08195 105-529)
T1 construct: also called huCD98 ECD; recombinant human CD98 extracellular domain
T1 sequence: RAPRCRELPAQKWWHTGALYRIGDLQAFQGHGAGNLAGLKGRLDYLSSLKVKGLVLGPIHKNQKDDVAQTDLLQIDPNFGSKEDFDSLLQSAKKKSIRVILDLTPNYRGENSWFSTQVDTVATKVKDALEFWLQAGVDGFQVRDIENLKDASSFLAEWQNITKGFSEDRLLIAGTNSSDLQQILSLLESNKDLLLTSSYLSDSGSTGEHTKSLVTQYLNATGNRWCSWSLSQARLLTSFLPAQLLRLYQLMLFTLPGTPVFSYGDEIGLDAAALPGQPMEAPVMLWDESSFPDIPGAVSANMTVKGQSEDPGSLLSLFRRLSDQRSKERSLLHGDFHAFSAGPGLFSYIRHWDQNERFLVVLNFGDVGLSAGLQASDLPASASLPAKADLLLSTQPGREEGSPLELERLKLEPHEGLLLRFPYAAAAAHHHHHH
Assay: SPR Biacore, anti-Fc capture of mAb, CD98 ECD analyte
VALUE_KIND: pKd
Would you please state pKd, meaning minus log10 of the concentration in mol/L, as a bare number?

// query # query: pKd of entry Anti-CD98 rat hybridoma antibody Ab11 (antibody, V domains shown) VH: EVQLVESGGGLVQPGRSLKLSCAASGFTFSDYAMAWVRQAPKKGLEWVAGIIYDGRGTYYRDSVKGRFTISRDNAKSTLYLQMDSLRSEDTATYYCARQGDGTYYYWGYFDYWGQGVMVTVSS VL: DIVMTQSPSSLAVSAGETVTINCRSSQSLLSSGNQKNYLAWYQQKPGQSPKLLIYWASTRQSGVPDRFIGSGSGTDFTLTISSVQAEDLAIYYCQQYYDTPYTFGAGTKLELK
// result 7.74
